B1: TRIM43 (parent)
chain: YQEIFQQLQRSWVKMDQKSKHLKE

Variants of: B1
Experiment: protein stability index of a GFP-peptide fusion (GPS, HEK-293T) (PSI 1-6); higher = more stable;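 also: lentivirally expressed fusions sorted by FACS into six bins by GFP to DsRed ratio, PSI derived from sequencing read proportions per bin multiplied by bin number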
Conditions: c terminus: a fixed tail appended
ASSAY_READOUT: protein stability index
Numbers only.

Some solved entries appear below for comparison.
E3Y ... 2.39
Q17W ... 1.72
F5D ... 4.05

Need protein stability index for each of these variants.
1. E24M
2. Q6V
3. K14L
4. E3H
5. Q17T
6. M15N

1: 1.71; 2: 1.85; 3: 2.44; 4: 2.47; 5: 2.62; 6: 2.59

Need protein stability index for each of these variants.
1. M15E
2. H21S
3. K18F
4. K20T
5. E24N

1. 2.87
2. 2.37
3. 1.44
4. 1.86
5. 2.28

Need protein stability index for each of these variants.
1. Q6A
2. Q9F
3. S19A
4. W12Y
5. K23L
6. R10A

[2.04, 2.23, 3.09, 2.18, 1.66, 2.74]

Need protein stability index for each of these variants.
1. W12S
2. F5G
3. E3G
4. Q2Y
5. E3R
6. S19C
7. F5A
8. K23E

1. 2.55
2. 3.31
3. 1.35
4. 1.72
5. 3.7
6. 1.99
7. 2.94
8. 2.6

Need protein stability index for each of these variants.
1. V13E
2. Q2H
3. H21G
4. M15Q

3.48
1.58
2.33
2.3

Need protein stability index for each of these variants.
1. Q17D
2. S11V
3. E3L
4. D16V
5. V13F
6. V13Q

[2.01, 1.63, 1.79, 1.69, 2.07, 2.2]

Need protein stability index for each of these variants.
1. E3A
2. R10C
3. I4H

1. 2.23
2. 1.96
3. 1.85

Need protein stability index for each of these variants.
1. Q7V
2. K18P
3. Q7R
4. I4T
5. E24W
6. M15G

1. 1.65
2. 2.1
3. 1.66
4. 1.96
5. 2.41
6. 2.35
